System: Wnt5a (protein binding on small-molecule microarray)
Assay method text: Wnt5a binders on small-molecule microarray, primary screen, biophysical, 635/667 nm fluorescence (AID 1142);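 further: fluorescence read at 667 nm with signal to noise per printed feature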
Experimental conditions: 635 nm fluorescence, higher = more signal
Class True: composite z-score at least -0.09. Class False: composite z-score below -0.09.

- CO[C@@H]1COC(=O)CC=C[C@H](C)COC(=O)[C@H](C)NC(=O)CC=C[C@H]1C: True
- CC(C)=NO[C@@H](C)c1cc(-c2c(C)cc(C)cc2C)no1: False
- CCOC(=O)[C@H](Cc1ccccc1)NC(=O)CCC1CC(OC(=O)NCc2cccc3ccccc23)CC2(CCCC(COC(=O)NCCCN3CCCC3=O)O2)O1 (some centres undefined): True
- CC(C)CON=C1C[C@@H](O)[C@@H](O)[C@@H]2[C@@H]3C(=O)N(c4cccc(Oc5ccccc5)c4)C(=O)[C@@H]3CC[C@H]12: True
- CCOC(=O)NN=C1C[C@@H](O)[C@@H](O)[C@@H]2[C@@H]3C(=O)N(Cc4ccc5c(c4)OCO5)C(=O)[C@@H]3CC[C@@H]12: False
- CC(C)CCN1CCc2nc(-c3ccccc3)c3c(c2C1)CO[C@@H](C)C3: True

Turning now to a further record.
Request: Hi, just wondering whether COC(=O)[C@H](C)NC(=O)CCC1CC(OC(=O)NCCc2ccc(F)cc2)CC2(CCCC(COC(=O)NCCCN3CCCC3=O)O2)O1 (some centres undefined) shows composite z-score of -0.09 or higher.
Response: True

====

Below, each entry is listed alongside its reported z-score.
Assay method text: basal S. cerevisiae growth modulation, no modifier, primary screen, OD600, strain BY4716, 24 h, basal condition (AID 1173)
Experimental conditions: OD600, 24 h, higher = more signal, called active from +8 up or from −8 down
Reply with the value as a number alone.

• CO[C@@H]1COC(=O)CC=C[C@H](C)COC(=O)[C@H](C)NC(=O)CC=C[C@H]1C = 0.699
• CCOC(=O)[C@H](Cc1ccccc1)NC(=O)CCC1CC(OC(=O)NCc2cccc3ccccc23)CC2(CCCC(COC(=O)NCCCN3CCCC3=O)O2)O1 (stereo not given in full) = -1.78
• CO[C@@H]1C=CCC(=O)N2CCC[C@H]2C(=O)OC[C@H](C)C(=O)OC[C@H]1C = -0.774
• CC(C)C(=O)N[C@@H]1CCCN1C(=O)C=Cc1ccccc1 = -1.17
• C[C@@H](ON=C1[C@H]2CCn3c(=O)n(-c4ccccc4)c(=O)n3[C@H]2[C@H](O)[C@@H]2O[C@H]12)c1cn([C@H](CO)Cc2ccccc2)nn1 = 0.394

Per the record, CCOC(=O)CCN1C(=O)[C@H]2[C@H]3[C@H](O)[C@H](O)CC(=NNC(=O)OCC)[C@@H]3CC[C@H]2C1=O has z-score of -0.762

Per the record, CCCNC(=O)OC[C@H]1O[C@H](CCON=C(C)CCC(=O)OC[C@H]2O[C@H](C#Cc3ccccc3)C=C[C@@H]2Oc2ccc(C)cc2)C=C[C@@H]1Oc1ccc(OC)cc1 has z-score of 0.889

Per the record, Cc1cc2c(nc1C)CCCN2CC(C)ON=C[C@@H](C)[C@H](OCc1ccccc1)C(C)C (stereo not given in full) has z-score of -0.0028

Per the record, CO[C@H]1COC(=O)[C@H](C)NC(=O)CC=C[C@@H](C)[C@H](OC)COC(=O)CC=C[C@@H]1C has z-score of 0.278

Per the record, CCN1C(=O)[C@H]2[C@H]3[C@H](O)[C@H](O)CC(=NNC(=O)OCc4ccc(OC)cc4)[C@H]3CC[C@H]2C1=O has z-score of 0.199
